Value source: patent US12234224B2

Catalogue of IC50 readings, one per entry.
Target: Recombinant human p70S6K kinase (Homo sapiens, UniProt P23443)
Sequence (P23443 whole entry): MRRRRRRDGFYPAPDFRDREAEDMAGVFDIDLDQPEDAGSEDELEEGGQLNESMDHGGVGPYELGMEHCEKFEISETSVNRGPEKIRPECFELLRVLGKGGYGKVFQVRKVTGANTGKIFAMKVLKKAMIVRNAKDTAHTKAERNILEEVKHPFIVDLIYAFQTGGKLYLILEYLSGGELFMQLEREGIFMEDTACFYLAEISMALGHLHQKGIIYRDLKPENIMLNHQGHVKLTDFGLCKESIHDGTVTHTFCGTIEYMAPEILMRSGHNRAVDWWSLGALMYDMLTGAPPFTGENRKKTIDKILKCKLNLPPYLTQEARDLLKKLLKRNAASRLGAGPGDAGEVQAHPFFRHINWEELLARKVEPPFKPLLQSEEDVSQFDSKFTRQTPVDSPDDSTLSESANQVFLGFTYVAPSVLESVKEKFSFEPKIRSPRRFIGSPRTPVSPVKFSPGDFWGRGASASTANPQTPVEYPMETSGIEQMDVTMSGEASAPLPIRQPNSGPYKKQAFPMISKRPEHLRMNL
Assay: S6K Enzymatic Inhibition Assay (HotSpot kinase assay; called S6K binding assay in Table 2)
Conditions: IC50 class
Description: Enzymatic activity was determined using a commercial HotSpot kinase assay. Recombinant human p70S6K kinase was purchased from ThermoFisher Scientific (cat #PV3815). The substrate S6K/RSK2 peptide 2 was synthesized at Genscript [Piscataway, NJ]. […] The radioactivity was detected by filter-binding method. Kinase activity data is expressed as the percent remaining kinase activity in test samples compared to vehicle (DMSO) reactions. […]

Some solved cases for reference:
- TEST_SMILES: "Nc1ncnc(-c2cnn(Cc3ccc(C(F)(F)F)cc3)c2)c1-c1ccc(F)c(F)c1"
  READING: "< 50 nM"
- TEST_SMILES: "Nc1ncnc(-c2cnn(Cc3ccc(C(F)(F)F)cc3)c2)c1-c1ccc2c(c1)OC(F)(F)O2"
  READING: "500 to 10000 nM"
- TEST_SMILES: "COc1ccc(-c2c(N)ncnc2-c2cnn(Cc3ccc(C(F)(F)F)cc3)c2)cc1"
  READING: "< 50 nM"
- TEST_SMILES: "Nc1ncnc(-c2cnn(-c3ccccc3)c2)c1-c1ccc(Cl)cc1"
  READING: "50 to 500 nM"
- TEST_SMILES: "CS(=O)(=O)c1ccc(-c2c(N)ncnc2-c2cnn(Cc3ccc(C(F)(F)F)cc3)c2)cc1"
  READING: "500 to 10000 nM"
- TEST_SMILES: "Nc1nccc(-c2cnn(Cc3ccc(C(F)(F)F)cc3)c2)c1-c1ccc(Cl)cc1"
  READING: "< 50 nM"
- TEST_SMILES: "Nc1ncnc(-c2cnn(Cc3ccc(OC(F)(F)F)cc3)c2)c1-c1ccc(Cl)cc1"
  READING: "< 50 nM"

# ---- query molecule ----
Just so you know, measured IC50 for COc1ccc(-c2c(N)ncnc2-c2cnn(Cc3ccc(C(F)(F)F)cc3)c2)cc1Cl came out at 500 to 10000 nM
